Where do these numbers come from? They come from patent US8937193B2.

# Plasma Stability (T = 40 mins) values compiled below
- Experiment summary: In vitro plasma stability
- Test conditions: Table 4
Write the answer as a number in %, unit excluded.

Compound	Measured number
CC1=C(C2=C(C)C(=O)c3c(cc(O)c(O)c3CCc3ccc(C)cc3)C2=O)C(=O)c2cc(O)c(O)c(CCc3ccc(C)cc3)c2C1=O	86
CC1=C(C2=C(C)C(=O)c3c(cc(O)c(O)c3CCCc3ccccc3)C2=O)C(=O)c2cc(O)c(O)c(CCCc3ccccc3)c2C1=O	87
CC1=C(C2=C(C)C(=O)c3c(cc(O)c(O)c3CC(C)C)C2=O)C(=O)c2cc(O)c(O)c(CC(C)C)c2C1=O	98
CC1=C(C2=C(C)C(=O)c3c(cc(O)c(O)c3CCC3CCCCC3)C2=O)C(=O)c2cc(O)c(O)c(CCC3CCCCC3)c2C1=O	74

Let us move to another entry and its Plasma Stability (T = 40 mins).
Problem: Item CC1=C(C2=C(C)C(=O)c3c(cc(O)c(O)c3C(=O)NCC(C)c3ccccc3)C2=O)C(=O)c2cc(O)c(O)c(C(=O)NCC(C)c3ccccc3)c2C1=O (centres unmarked) has what recorded Plasma Stability (T = 40 mins)?
Solution: 91
